// reported DNA synthesis (% control) for each item listed
Test system: keratinocytes
Test: Rate of DNA synthesis (3H-thymidine incorporation) in keratinocytes
Format: cell-based, human
Settings: Tables 5A-5I; 100 nM 1,25D; Econazole 10 uM, ceramide analogue 1 uM
Description: 1. Normal human keratinocytes isolated from neonatal foreskins by trypsin treatment were grown in DME medium/10% fetal calf serum in the presence of irradiated 3T3 mouse fibroblasts for establishing dividing keratinocyte colonies. […] 3. […] The cells were incubated overnight and […] (10:00 AM next day) the amount of ^3 -thymidine associated with the cellular DNA of keratinocytes was assessed as described below. 4. […] Mean and standard deviation for each group was also calculated. […]
measurement type: DNA synthesis (% control)

- compound: "Clc1ccc(COC(Cn2ccnc2)c2ccc(Cl)cc2Cl)cc1 (centres unmarked) [Econazole]"
  value unit: "% control"
  numeric result: 50.5
- compound: "CCCCCCCCCCCCN(CC(O)CO)C(=O)C(O)CCCCCC (centres unmarked) [Formula K]"
  value unit: "% control"
  numeric result: 80
- compound: "CCCCCCCCCCCCCCCCN(CC(O)CO)C(C)=O (centres unmarked) [Formula F]"
  value unit: "% control"
  numeric result: 90.3
- compound: "CCCCCCCCCCCCC/C=C/C(O)C(CO)NC(=O)CCCCC (centres unmarked) [Formula B]"
  value unit: "% control"
  numeric result: 126
- compound: "CCCCCCCCCCCCCCCCN(CC(O)CO)C(=O)CCCCC (centres unmarked) [Formula G]"
  value unit: "% control"
  numeric result: 102.8
